biological target: PfCRT^Ecu1110 (Plasmodium falciparum, UniProt Q9N623, A220S/I356L/K76T/N326D); experiment: cell-based; format: cell-based; settings: [test solute]i = 45 mM (intracellular; 30 mM for some solutes due to solubility); PfCRTEcu1110 oocytes; normalised to oocyte type control
This section presents substances with their documented PfCRT-mediated [3H]CQ transport, trans-stimulation (% PfCRTEcu1110 control) values.
Endpoint label: PfCRT-mediated [3H]CQ transport, trans-stimulation (% PfCRTEcu1110 control)

>  <Substance>
EFTPPVQ [EQ-7]

>  <Unit string>
% PfCRTEcu1110 control

>  <Data value>
136

$$$$
>  <Substance>
VHLTPEEK [VK-8]

>  <Unit string>
% PfCRTEcu1110 control

>  <Data value>
100

$$$$
>  <Substance>
HAGEYG [HG-6]

>  <Unit string>
% PfCRTEcu1110 control

>  <Data value>
96

$$$$
>  <Substance>
VDEVGG [VG-6]

>  <Unit string>
% PfCRTEcu1110 control

>  <Data value>
139

$$$$
>  <Substance>
HVDPENF [HF-7]

>  <Unit string>
% PfCRTEcu1110 control

>  <Data value>
138

$$$$

====

Molecular target: PfCRT^Ecu1110 (Plasmodium falciparum, UniProt Q9N623, A220S/I356L/K76T/N326D)
Test: cell-based
Format: cell-based
Settings: […], read-out: Uptake of [3H]CQ (% PfCRTDd2 control), trans-stimulation, PfCRTEcu1110, total [3H]CQ transport; [test solute]i = 45 mM (intracellular; 30 mM for some solutes due to solubility); mean ± SEM; SEM
Experimental: Unless specified otherwise, the transport assays were conducted over 1.5 h at 27.5 °C and the reaction buffer was ND96 (96 mM NaCl, 2 mM KCl, 1 mM MgCl2, 1.8 mM CaCl2, 10 mM MES and 10 mM Tris-base) at pH 5.5. The intracellular concentrations were calculated using previous estimates of the volume of stage V–VI oocytes (~400 nL[60]). […] The oocytes were injected with VF-6 suspended in 25 nL ND96 buffer adjusted to pH 5.0, 5.5, 6.0 or 7.0, which corresponded to the injection of 2.5–250 fmol of H^+. […]

>  <Mol>
CC(C)[C@H](N)C(=O)O

>  <Tgt>
PfCRT^Ecu1110 (Plasmodium falciparum, UniProt Q9N623, A220S/I356L/K76T/N326D)

>  <activity at 45000 µM>
36%

$$$$
>  <Mol>
CSCC[C@H](N)C(=O)O

>  <Tgt>
PfCRT^Ecu1110 (Plasmodium falciparum, UniProt Q9N623, A220S/I356L/K76T/N326D)

>  <activity at 45000 µM>
36%

$$$$
>  <Mol>
N[C@@H](Cc1ccc(O)cc1)C(=O)O

>  <Tgt>
PfCRT^Ecu1110 (Plasmodium falciparum, UniProt Q9N623, A220S/I356L/K76T/N326D)

>  <activity at 45000 µM>
36%

$$$$
>  <Mol>
C[C@@H](O)[C@H](N)C(=O)O

>  <Tgt>
PfCRT^Ecu1110 (Plasmodium falciparum, UniProt Q9N623, A220S/I356L/K76T/N326D)

>  <activity at 45000 µM>
35%

$$$$

====

We begin with a simple list: items and their reported PfCRT-mediated [3H]CQ transport, trans-stimulation (% PfCRT3D7 control).
target: PfCRT^3D7 (Plasmodium falciparum, UniProt Q8IBZ9); test: cell-based; assay type: cell-based; settings: [test solute]i = 45 mM (intracellular; 30 mM for some solutes due to solubility); PfCRT3D7 oocytes; normalised to oocyte type control
Sequence (Q8IBZ9 59-398): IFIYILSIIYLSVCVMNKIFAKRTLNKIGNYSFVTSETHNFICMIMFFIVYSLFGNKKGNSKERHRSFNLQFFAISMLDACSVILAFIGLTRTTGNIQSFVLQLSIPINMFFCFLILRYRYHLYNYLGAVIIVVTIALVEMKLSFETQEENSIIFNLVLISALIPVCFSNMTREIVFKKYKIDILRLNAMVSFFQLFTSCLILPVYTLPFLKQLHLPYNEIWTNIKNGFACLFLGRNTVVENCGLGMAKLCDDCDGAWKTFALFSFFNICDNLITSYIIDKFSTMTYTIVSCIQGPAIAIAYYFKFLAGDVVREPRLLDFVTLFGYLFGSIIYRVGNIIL
Endpoint label: PfCRT-mediated [3H]CQ transport, trans-stimulation (% PfCRT3D7 control)

>  <Substance>
VDEVGG [VG-6]

>  <Data value>
190 ± 3.6 % PfCRT3D7 control

$$$$
>  <Substance>
FPHFDLS [FS-7]

>  <Data value>
99 ± 2.7 % PfCRT3D7 control

$$$$
>  <Substance>
SHCLLVT [ST-7]

>  <Data value>
192 ± 4.6 % PfCRT3D7 control

$$$$
>  <Substance>
HVDPEN [HN-6]

>  <Data value>
193 ± 4.7 % PfCRT3D7 control

$$$$
>  <Substance>
VDPVNFK [VK-7]

>  <Data value>
179 ± 5.3 % PfCRT3D7 control

$$$$
>  <Substance>
VHLTPEEK [VK-8]

>  <Data value>
166 ± 4.2 % PfCRT3D7 control

$$$$
>  <Substance>
HVDDMP [HP-6]

>  <Data value>
190 ± 4.3 % PfCRT3D7 control

$$$$
>  <Substance>
AEALERMF [AF-8]

>  <Data value>
97 ± 3.5 % PfCRT3D7 control

$$$$
>  <Substance>
HVDDMPN [HN-7]

>  <Data value>
187 ± 4.5 % PfCRT3D7 control

$$$$
>  <Substance>
LSFPTTK [LK-7]

>  <Data value>
94 ± 3.6 % PfCRT3D7 control

$$$$
>  <Substance>
DLDDALDK [DK-8]

>  <Data value>
96 ± 3.4 % PfCRT3D7 control

$$$$
>  <Substance>
VLSPAD [VD-6]

>  <Data value>
95 ± 4.1 % PfCRT3D7 control

$$$$
>  <Substance>
DLHAHKLR [DR-8]

>  <Data value>
181 ± 5.2 % PfCRT3D7 control

$$$$

====

target: PfCRT^Dd2 (Plasmodium falciparum, UniProt Q9N623, A220S/I356T/K76T/M74I/N326S/N75E/Q271E/R371I); assay: cell-based; format: cell-based; details: [test solute]i = 5 mM (intracellular); PfCRTDd2 oocytes; normalised to oocyte type control
Sequence (Q9N623 whole entry A220S/I356T/K76T/M74I/N326S/N75E/Q271E/R371I): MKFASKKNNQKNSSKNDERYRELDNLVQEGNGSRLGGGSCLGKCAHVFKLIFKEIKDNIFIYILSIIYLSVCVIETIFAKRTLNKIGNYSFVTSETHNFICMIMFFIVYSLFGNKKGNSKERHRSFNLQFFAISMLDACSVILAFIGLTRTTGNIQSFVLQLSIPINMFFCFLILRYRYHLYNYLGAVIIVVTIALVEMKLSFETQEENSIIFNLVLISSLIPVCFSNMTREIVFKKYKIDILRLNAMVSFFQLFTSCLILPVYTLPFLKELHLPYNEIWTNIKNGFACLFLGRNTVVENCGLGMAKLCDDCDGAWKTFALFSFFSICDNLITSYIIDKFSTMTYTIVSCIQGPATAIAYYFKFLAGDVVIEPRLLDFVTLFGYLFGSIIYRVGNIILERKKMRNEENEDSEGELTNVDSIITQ
Endpoint label: PfCRT-mediated [3H]CQ transport, trans-stimulation (% PfCRTDd2 control)

>  <Substance>
SHCLLVT [ST-7]

>  <Data value>
97 ± 3.2 % PfCRTDd2 control

$$$$
>  <Substance>
EFTPPVQA [EA-8]

>  <Data value>
97 ± 2.2 % PfCRTDd2 control

$$$$
>  <Substance>
DTSLKPIS [DS-8]

>  <Data value>
95 ± 3.1 % PfCRTDd2 control

$$$$
>  <Substance>
AEALERMF [AF-8]

>  <Data value>
97 ± 2.8 % PfCRTDd2 control

$$$$
>  <Substance>
HVDDMPNA [HA-8]

>  <Data value>
96 ± 3.1 % PfCRTDd2 control

$$$$
>  <Substance>
HAGEYG [HG-6]

>  <Data value>
101 ± 3.3 % PfCRTDd2 control

$$$$
>  <Substance>
EFTPPVQ [EQ-7]

>  <Data value>
96 ± 3.3 % PfCRTDd2 control

$$$$
>  <Substance>
VLSPAD [VD-6]

>  <Data value>
101 ± 3.6 % PfCRTDd2 control

$$$$
>  <Substance>
LSDLHAHK [LK-8]

>  <Data value>
98 ± 3.3 % PfCRTDd2 control

$$$$
>  <Substance>
LHVDPENF [LF-8]

>  <Data value>
99 ± 3.1 % PfCRTDd2 control

$$$$
>  <Substance>
FSDGLA [FA-6]

>  <Data value>
102 ± 6.2 % PfCRTDd2 control

$$$$
>  <Substance>
HVDDMP [HP-6]

>  <Data value>
103 ± 1.1 % PfCRTDd2 control

$$$$
>  <Substance>
DLDDALDK [DK-8]

>  <Data value>
98 ± 3.3 % PfCRTDd2 control

$$$$
>  <Substance>
HVDPEN [HN-6]

>  <Data value>
100 ± 2.1 % PfCRTDd2 control

$$$$
>  <Substance>
DPENFR [DR-6]

>  <Data value>
100 ± 3.7 % PfCRTDd2 control

$$$$
>  <Substance>
DMPNALS [DS-7, host-derived peptide upstream of PL-4]

>  <Data value>
97 ± 3.6 % PfCRTDd2 control

$$$$
